Sourced from patent US20230285405A1

System: A549-mRuby cells
method.description: Drug screening: effect on cell growth (cell number day 4 / day 0)
particulars: 10 μM drug, repeat #1
Counter-ions that a name gives are not always drawn.
Classify by measured Growth_1: number of cells at day 4 divided by number of cells at day 0: true if it is equal to or exceeds 5, false if it is smaller.

Reference set (3 entries):
Request: Hi, just wondering whether NC(=O)C(c1ccccc1)(c1ccccc1)[C@@H]1CCN(CCc2ccc3c(c2)CCO3)C1 [Darifenacin HBr] shows Growth_1: number of cells at day 4 divided by number of cells at day 0 of 5 or higher.
Result: true

Request: Form field: Growth_1: number of cells at day 4 divided by number of cells at day 0 at least 5? Entry: CN1CCC(COc2cnc(-c3cccc(Cn4nc(-c5cccc(C#N)c5)ccc4=O)c3)nc2)CC1 [Tepotinib (EMD 1214063), Tepotinib]
Result: true

Request: Hello, I need to know if CN(C)CCCN1c2ccccc2Sc2ccccc21 [Promazine hydrochloride] has measured Growth_1: number of cells at day 4 divided by number of cells at day 0 not below 5. Thanks!
Result: false

Further cases:
Request: Dear colleague, could you confirm whether C#C[C@]1(O)CC[C@H]2[C@@H]3CCC4=CC(=O)CC[C@@H]4[C@H]3C(=C)C[C@@]21CC [Etonogestrel] has Growth_1: number of cells at day 4 divided by number of cells at day 0 at or above 5?
Result: false

Request: Threshold query (Growth_1: number of cells at day 4 divided by number of cells at day 0 >= 5) on N=C(N)N/N=C/c1c(Cl)cccc1Cl [Guanabenz Acetate]
Result: true

---

Tested on: A549-mRuby cells
method.description: Drug screening: effect on cell growth (cell number day 4 / day 0)
particulars: 10 μM drug, repeat #1
Where a name gives a salt, the structure may show the parent alone.
property.name: toxic_1
Numbers only.

Request: Provide measured toxic_1 on A549-mRuby cells for CN1CCC(=C2c3ccccc3C=Cc3ccccc32)CC1 [Cyproheptadine HCl] please.
Result: 0

For each entry beneath this line, provide reported toxic_1.
1. COc1ccc2cc1Oc1ccc(cc1)C[C@H]1c3c(cc4c(c3Oc3cc5c(cc3OC)CCN(C)[C@@H]5C2)OCO4)CCN1C
2. Clc1ccc2c(c1)CCc1cccnc1C2=C1CCNCC1
3. CS(=O)(=O)CCNCc1ccc(-c2ccc3ncnc(Nc4ccc(OCc5cccc(F)c5)c(Cl)c4)c3c2)o1.Cc1ccc(S(=O)(=O)O)cc1.Cc1ccc(S(=O)(=O)O)cc1 [Lapatinib (GW-572016) Ditosylate]
4. CCN(CCO)CCCC(C)Nc1ccnc2cc(Cl)ccc12 (stereo not drawn) [Hydroxychloroquine Sulfate]
5. COCCCC/C(=N\OCCN)c1ccc(C(F)(F)F)cc1 [Fluvoxamine maleate]

Result:
1. 0
2. 0
3. 0
4. 0
5. 0

// for each molecule below, give its toxic_1
1. CN1CCN(C2=Nc3cc(Cl)ccc3Nc3ccccc32)CC1
2. OCCOCCN1CCN(C2=Nc3ccccc3Sc3ccccc32)CC1 [Quetiapine Fumarate]

Result:
[0, 0]

Lab note: each molecule below needs its toxic_1 filled in.
1. O=C(O)CCC(=O)O.O=C(O[C@H]1CN2CCC1CC2)N1CCc2ccccc2[C@@H]1c1ccccc1 [Solifenacin succinate]
2. O=C(Nc1ccccc1)OCC(CN1CCCCC1)OC(=O)Nc1ccccc1 (stereo not drawn) [Diperodon HCl]
3. COc1ccc(CN2CCN(C(c3ccc(F)cc3)c3ccc(F)cc3)CC2)c(OC)c1OC.Cl.Cl [Lomerizine 2HCl]
4. CCCC1O[C@@H]2C[C@H]3[C@@H]4CCC5=CC(=O)C=C[C@]5(C)[C@H]4[C@@H](O)C[C@]3(C)[C@]2(C(=O)CO)O1 (stereo partly drawn) [Budesonide]

Result:
1. 0
2. 0
3. 0
4. 0
